Quick reference: MIC, MRSA 43300 of the listed items.
Tested on: MRSA 43300
Type: cell-based, Methicillin-Resistant Staphylococcus aureus
Non-standard residues stand in square brackets, D forms with d. Residues, ends and D or L forms follow the SMILES beside them. *: point of attachment. 2Nal = N[C@@H](Cc1ccc2ccccc2c1)C(=O)O; 1Naphthoyl = O=C(c1cccc2ccccc12)*; Myristoyl = CCCCCCCCCCCCCC(=O)*; Lauroyl = CCCCCCCCCCCC(=O)*
// return numeric value only (unit: µM, not printed)

COMPOUND	ENDPOINT_UNIT	MIC, MRSA 43300
CCCCCCCCCCCC(=O)N[C@H](CCCNC(=N)N)C(=O)N[C@@H](CCCNC(=N)N)C(=O)N[C@@H](CCCNC(=N)N)C(=O)N1CCC[C@H]1C(=O)O [Peptide C12] (Lauroyl-[dR]RRP-OH)	µM	32
C[C@H](N)C(=O)N[C@@H](C)C(=O)N[C@@H](C)C(=O)N[C@@H](C)C(=O)N[C@@H](C)C(=O)N[C@H](CCCNC(=N)N)C(=O)N[C@@H](CCCNC(=N)N)C(=O)N[C@@H](CCCNC(=N)N)C(=O)N1CCC[C@H]1C(=O)O [Peptide A5] (H-AAAAA[dR]RRP-OH)	µM	256

Problem: Kindly state the measured MIC, MRSA 43300 obtained for N=C(N)NCCC[C@H](NC(=O)[C@H](Cc1ccc2ccccc2c1)NC(=O)[C@H](Cc1ccc2ccccc2c1)NC(=O)[C@H](Cc1ccc2ccccc2c1)NC(=O)[C@H](Cc1ccc2ccccc2c1)NC(=O)[C@@H](N)Cc1ccc2ccccc2c1)C(=O)N[C@H](CCCNC(=N)N)C(=O)N[C@@H](CCCNC(=N)N)C(=O)N1CCC[C@H]1C(=O)O [Peptide N5] (H-[2Nal][2Nal][2Nal][2Nal][2Nal]R[dR]RP-OH) with MRSA 43300.
Result: 256

Problem: Input N=C(N)NCCC[C@H](NC(=O)[C@H](Cc1ccc2ccccc2c1)NC(=O)[C@H](Cc1ccc2ccccc2c1)NC(=O)[C@H](Cc1ccc2ccccc2c1)NC(=O)[C@H](Cc1ccc2ccccc2c1)NC(=O)[C@H](Cc1ccc2ccccc2c1)NC(=O)[C@@H](N)Cc1ccc2ccccc2c1)C(=O)N[C@H](CCCNC(=N)N)C(=O)N[C@@H](CCCNC(=N)N)C(=O)N1CCC[C@H]1C(=O)O [Peptide N6] (H-[2Nal][2Nal][2Nal][2Nal][2Nal][2Nal]R[dR]RP-OH)
Result: 256

Problem: Follow-up entry: C[C@H](N)C(=O)N[C@@H](C)C(=O)N[C@@H](C)C(=O)N[C@@H](C)C(=O)N[C@@H](C)C(=O)N[C@@H](C)C(=O)N[C@H](CCCNC(=N)N)C(=O)N[C@@H](CCCNC(=N)N)C(=O)N[C@@H](CCCNC(=N)N)C(=O)N1CCC[C@H]1C(=O)O [Peptide A6] (H-AAAAAA[dR]RRP-OH)
Result: 256

Problem: Okay, and CCCCCCCCCCCCCC(=O)N[C@H](CCCNC(=N)N)C(=O)N[C@@H](CCCNC(=N)N)C(=O)N[C@@H](CCCNC(=N)N)C(=O)N1CCC[C@H]1C(=O)O [Peptide C14] (Myristoyl-[dR]RRP-OH) ?
Result: 16

Problem: Follow-up item: N=C(N)NCCC[C@H](NC(=O)c1cccc2ccccc12)C(=O)N[C@H](CCCNC(=N)N)C(=O)N[C@@H](CCCNC(=N)N)C(=O)N1CCC[C@H]1C(=O)O [Nap] (1Naphthoyl-R[dR]RP-OH)
Result: 256

Problem: Entry N=C(N)NCCC[C@H](NC(=O)[C@H](Cc1ccc2ccccc2c1)NC(=O)[C@H](Cc1ccc2ccccc2c1)NC(=O)[C@@H](N)Cc1ccc2ccccc2c1)C(=O)N[C@H](CCCNC(=N)N)C(=O)N[C@@H](CCCNC(=N)N)C(=O)N1CCC[C@H]1C(=O)O [Peptide N3] (H-[2Nal][2Nal][2Nal]R[dR]RP-OH) please
Result: 16

====

Test system: MRSA 43300
Assay type: cell-based, Methicillin-Resistant Staphylococcus aureus
Non-standard residues stand in square brackets, D forms with d. Residues, ends and D or L forms follow the SMILES beside them. ξ: configuration not given here. ξAhp(2) = CCCCCC(N)C(=O)O
# MIC, MRSA 43300 values compiled below

COMPOUND	MIC, MRSA 43300
CCCCCC(N)C(=O)NC(CCCCC)C(=O)NC(CCCCC)C(=O)NC(CCCCC)C(=O)N[C@H](CCCNC(=N)N)C(=O)N[C@@H](CCCNC(=N)N)C(=O)N[C@@H](CCCNC(=N)N)C(=O)N1CCC[C@H]1C(=O)O (some centres unmarked) [Peptide B4] (H-[ξAhp(2)][ξAhp(2)][ξAhp(2)][ξAhp(2)][dR]RRP-OH; N-terminus assumed)	16 µM

Now let's try a different one.
Problem: Find MIC, MRSA 43300 (MRSA 43300) for the entry CCCCCC(N)C(=O)NC(CCCCC)C(=O)NC(CCCCC)C(=O)NC(CCCCC)C(=O)NC(CCCCC)C(=O)N[C@H](CCCNC(=N)N)C(=O)N[C@@H](CCCNC(=N)N)C(=O)N[C@@H](CCCNC(=N)N)C(=O)N1CCC[C@H]1C(=O)O (some centres unmarked) [Peptide B5] (H-[ξAhp(2)][ξAhp(2)][ξAhp(2)][ξAhp(2)][ξAhp(2)][dR]RRP-OH; N-terminus assumed)
Result: 32 µM

====

Tested on: S. pullorum C7913
Type: cell-based
Non-standard residues stand in square brackets, D forms with d. Residues, ends and D or L forms follow the SMILES beside them. ξ: configuration not given here. 2Nal = N[C@@H](Cc1ccc2ccccc2c1)C(=O)O; Ahp(2) = CCCCC[C@H](N)C(=O)O; ξAhp(2) = CCCCCC(N)C(=O)O
In this section we review reported MIC, S. pullorum C7913 values for a set of molecules.
Only the number, expressed in µM, is required.

Here is how some molecules turned out for MIC, S. pullorum C7913.
MOLECULE	TARGET_OR_SYSTEM	READOUT_KIND	QUANTITATIVE_RESULT
CCCCCC(N)C(=O)NC(CCCCC)C(=O)NC(CCCCC)C(=O)NC(CCCCC)C(=O)N[C@H](CCCNC(=N)N)C(=O)N[C@@H](CCCNC(=N)N)C(=O)N[C@@H](CCCNC(=N)N)C(=O)N1CCC[C@H]1C(=O)O (stereo partly drawn) [Peptide B4] (H-[ξAhp(2)][ξAhp(2)][ξAhp(2)][ξAhp(2)][dR]RRP-OH; N-terminus assumed)	S. pullorum C7913	MIC, S. pullorum C7913	16
CCCCC[C@H](NC(=O)[C@H](CCCCC)NC(=O)[C@H](CCCCC)NC(=O)[C@@H](N)CCCCC)C(=O)N[C@@H](CCCCC)C(=O)N[C@@H](CCCCC)C(=O)N[C@H](CCCNC(=N)N)C(=O)N[C@@H](CCCNC(=N)N)C(=O)N[C@@H](CCCNC(=N)N)C(=O)N1CCC[C@H]1C(=O)O [Peptide B6] (H-[Ahp(2)][Ahp(2)][Ahp(2)][Ahp(2)][Ahp(2)][Ahp(2)][dR]RRP-OH; N-terminus and C-terminus assumed)	S. pullorum C7913	MIC, S. pullorum C7913	256
CCCCCC(N)C(=O)NC(CCCCC)C(=O)NC(CCCCC)C(=O)N[C@H](CCCNC(=N)N)C(=O)N[C@@H](CCCNC(=N)N)C(=O)N[C@@H](CCCNC(=N)N)C(=O)N1CCC[C@H]1C(=O)O (stereo partly drawn) [Peptide B3] (H-[ξAhp(2)][ξAhp(2)][ξAhp(2)][dR]RRP-OH; N-terminus assumed)	S. pullorum C7913	MIC, S. pullorum C7913	256
N=C(N)NCCC[C@H](NC(=O)[C@@H](CCCNC(=N)N)NC(=O)[C@H](Cc1cccc2ccccc12)NC(=O)[C@H](Cc1cccc2ccccc12)NC(=O)[C@H](Cc1cccc2ccccc12)NC(=O)[C@@H](N)Cc1cccc2ccccc12)C(=O)N[C@@H](CCCNC(=N)N)C(=O)N1CCC[C@H]1C(=O)O (stereo in doubt) [Peptide N4]	S. pullorum C7913	MIC, S. pullorum C7913	4
C[C@H](N)C(=O)N[C@@H](C)C(=O)N[C@@H](C)C(=O)N[C@@H](C)C(=O)N[C@@H](C)C(=O)N[C@H](CCCNC(=N)N)C(=O)N[C@@H](CCCNC(=N)N)C(=O)N[C@@H](CCCNC(=N)N)C(=O)N1CCC[C@H]1C(=O)O [Peptide A5] (H-AAAAA[dR]RRP-OH)	S. pullorum C7913	MIC, S. pullorum C7913	256

Attention now turns to another entry.
Problem: For the molecule shown here, N=C(N)NCCC[C@H](NC(=O)[C@H](Cc1ccc2ccccc2c1)NC(=O)[C@H](Cc1ccc2ccccc2c1)NC(=O)[C@H](Cc1ccc2ccccc2c1)NC(=O)[C@H](Cc1ccc2ccccc2c1)NC(=O)[C@@H](N)Cc1ccc2ccccc2c1)C(=O)N[C@H](CCCNC(=N)N)C(=O)N[C@@H](CCCNC(=N)N)C(=O)N1CCC[C@H]1C(=O)O [Peptide N5] (H-[2Nal][2Nal][2Nal][2Nal][2Nal]R[dR]RP-OH) , give the reported MIC, S. pullorum C7913.
Result: 256
